Value source: patent US8173638B2

target: human CB2R (Homo sapiens); construct: host or cells: CHO cells; assay: CB2R mediated modulation of cAMP synthesis; type: cell-based; settings: 0.5 h; CHO cells expressing human CB2R; cAMP inhibited by 1 uM CP55940 defined as 100%; read-out: Agonist Efficacy (%)
Sequence (P34972 whole entry): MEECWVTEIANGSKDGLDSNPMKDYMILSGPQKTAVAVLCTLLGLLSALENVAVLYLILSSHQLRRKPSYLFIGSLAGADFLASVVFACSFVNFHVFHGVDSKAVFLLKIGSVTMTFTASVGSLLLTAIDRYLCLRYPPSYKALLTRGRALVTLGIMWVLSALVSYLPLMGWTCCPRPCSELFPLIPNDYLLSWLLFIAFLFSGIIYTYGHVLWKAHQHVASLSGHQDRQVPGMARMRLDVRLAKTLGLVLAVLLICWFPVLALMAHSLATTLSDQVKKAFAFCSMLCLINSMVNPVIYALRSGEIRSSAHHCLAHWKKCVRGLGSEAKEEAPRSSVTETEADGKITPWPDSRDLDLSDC
Listing of recorded Emax by entry.

# MOLECULE, Emax, %
measured = [
    ("CC(C)c1ccc(NC(=O)N2CCCN(C(=O)CCC3CCCCC3)CC2)cc1 [Compound 56]", 103),
    ("Cc1nc(NC(=O)N2CCCN(C(=O)C3CCC(F)(F)CC3)CC2)sc1C(C)(C)C [Compound 169]", 95),
    ("N#Cc1ccc(C(=O)N2CCCN(C(=O)Nc3ccc4ccccc4c3)CC2)cc1 [Compound 88]", 97),
    ("CC(C)CCC(=O)N1CCCN(C(=O)Nc2ccc3ccccc3c2)CC1 [Compound 94]", 98),
]
